tested on: K562; experiment: Antileukemic activity against human K562 cells assessed as inhibition of tumor growth after 24 hrs; type: functional, cell-based; details: K562, 24 h
Listing: log10 IC50 of selected compounds
readout: log10 IC50 (log10 of the value in µM)

{"smi": "COc1cc(/C=C2/CN(C(=O)CC(=O)N3C/C(=C\\c4cc(OC)c(OC)c(OC)c4)C(=O)/C(=C/c4cc(OC)c(OC)c(OC)c4)C3)C/C(=C\\c3cc(OC)c(OC)c(OC)c3)C2=O)cc(OC)c1OC", "log10 IC50": -1.52}
{"smi": "O=C1/C(=C\\c2ccc(Cl)cc2)CN(C(=O)CC(=O)N2C/C(=C\\c3ccc(Cl)cc3)C(=O)/C(=C/c3ccc(Cl)cc3)C2)C/C1=C\\c1ccc(Cl)cc1", "log10 IC50": -1.52}
{"smi": "O=C1/C(=C/c2ccc(Cl)cc2)CN(C(=O)C(=O)N2C/C(=C\\c3ccc(Cl)cc3)C(=O)/C(=C/c3ccc(Cl)cc3)C2)C/C1=C\\c1ccc(Cl)cc1", "log10 IC50": -0.89}
{"smi": "O=C1/C(=C/c2ccc(F)cc2)CN(C(=O)C(=O)N2C/C(=C\\c3ccc(F)cc3)C(=O)/C(=C/c3ccc(F)cc3)C2)C/C1=C\\c1ccc(F)cc1", "log10 IC50": -0.55}
{"smi": "O=C1/C(=C\\c2ccccc2)CN(C(=O)CC(=O)N2C/C(=C\\c3ccccc3)C(=O)/C(=C/c3ccccc3)C2)C/C1=C\\c1ccccc1", "log10 IC50": -1.30}
{"smi": "Cc1ccc(/C=C2/CN(C(=O)CC(=O)N3C/C(=C\\c4ccc(C)cc4)C(=O)/C(=C/c4ccc(C)cc4)C3)C/C(=C\\c3ccc(C)cc3)C2=O)cc1", "log10 IC50": -1.00}
{"smi": "COc1cc(/C=C2\\CN(C(=O)C(=O)N3C/C(=C\\c4cc(OC)c(OC)c(OC)c4)C(=O)/C(=C/c4cc(OC)c(OC)c(OC)c4)C3)C/C(=C\\c3cc(OC)c(OC)c(OC)c3)C2=O)cc(OC)c1OC", "log10 IC50": -1.52}
{"smi": "O=C1/C(=C\\c2ccc(O)cc2)CN(C(=O)CC(=O)N2C/C(=C\\c3ccc(O)cc3)C(=O)/C(=C/c3ccc(O)cc3)C2)C/C1=C\\c1ccc(O)cc1", "log10 IC50": -0.28}
{"smi": "N[C@@H](Cc1ccc(N(CCCl)CCCl)cc1)C(=O)O", "log10 IC50": 2.29}
{"smi": "O=C1/C(=C\\c2ccccc2)CN(CCCN2C/C(=C\\c3ccccc3)C(=O)/C(=C/c3ccccc3)C2)C/C1=C\\c1ccccc1", "log10 IC50": -1.40}
